test: Simulated intestinal fluid (SIF) stability in the presence of various enzymes; format: in vitro ADME; conditions: simulated intestinal fluid with elastase, pH 6.8, SIF + Elastase; read-out: Half-life, calculated value in parentheses
Property: half-life at 1 µM

Per the record, CCCCCCCCCCCCCCCC(=O)NCCOC(=O)CCC(=O)OC(CO)CO has half-life at 1 µM of 12 min

---

assay: Pharmacokinetics of PEA after intravenous administration in male Sprague-Dawley rats; assay type: in vivo, Sprague-Dawley rat; conditions: male, Sprague-Dawley, rat, in vivo, iv, 1 mg/kg, MRTlast, individual rats
Property: MRT last (min)
I only need the number, in min, no unit after it.

Per the record, CCCCCCCCCCCCCCCC(=O)NCCO [PEA, palmitoylethanolamide] has MRT last of 23.9

---

assay: Simulated intestinal fluid (SIF) stability in the presence of various enzymes; assay type: in vitro ADME; settings: SIF + Carboxypeptidase B, 60 min, 1 μM
Give % Remaining of Initial (n = 1) for every item shown.
Your reply should be a number followed by the unit it is expressed in.

Per the record, CCCCC/C=C\C/C=C\CCCCCCCC(=O)OCCNC(=O)CCCCCCCCCCCCCCC has % Remaining of Initial (n = 1) of 54%

Per the record, CCCCCCCCCCCCCCCC(=O)NCCOC(=O)CCC(=O)OCC(COC(=O)CCC)OC(=O)CCC (centres unmarked) has % Remaining of Initial (n = 1) of 33%

Per the record, CCCCCCCCCCCCCCCC(=O)NCCOC(=O)CCC(=O)OC[C@H]1O[C@@](CO)(O[C@H]2O[C@H](CO)[C@@H](O)[C@H](O)[C@H]2O)[C@@H](O)[C@@H]1O has % Remaining of Initial (n = 1) of 5.7%

Per the record, CCCCCCCCCCCCCCCC(=O)NCCOC(=O)CCC(=O)OCC(O)CO (centres unmarked) has % Remaining of Initial (n = 1) of 6.1%

Per the record, CCCCCCCCCCCCCCCC(=O)NCCOC(=O)CCC(=O)OCC(COC(=O)CCCCCCC)OC(=O)CCCCCCC (centres unmarked) [Compound I-3, PEA-Succinate-Glycerol-Di-Caprylic] has % Remaining of Initial (n = 1) of 41%

Per the record, CCCCCCCCCCCCCCCC(=O)NCCOC(=O)CCC has % Remaining of Initial (n = 1) of 40%

Per the record, CCCCC/C=C\C/C=C\CCCCCCCC(=O)OCC(COC(=O)CCC(=O)OCCNC(=O)CCCCCCCCCCCCCCC)OC(=O)CCCCCCC/C=C\C/C=C\CCCCC (centres unmarked) has % Remaining of Initial (n = 1) of 14%

Per the record, CC/C=C\C/C=C\C/C=C\C/C=C\C/C=C\CCCC(=O)OCCNC(=O)CCCCCCCCCCCCCCC has % Remaining of Initial (n = 1) of 43%

---

Give half-life at 1 μM for every item shown.
experiment: in vitro; details: male, Beagle, dog, s9, Half-life

Per the record, CCCCCCCCCCCCCCCC(=O)NCCOC(=O)CCC(=O)OC(CO)CO [Compound I-8] has half-life at 1 μM of < 10 min

Per the record, CCCCCCCCCCCCCCCC(=O)NCCOC(=O)CCC(=O)OC(COC(=O)CCC)COC(=O)CCC [Compound I-16] has half-life at 1 μM of < 10 min

---

experiment: Liver microsomal stability, human; settings: both, human, microsomes, CLint, Control compound, Human liver microsomes
Property: microsomal CLint
Your reply should be a number followed by the unit it is expressed in.

Per the record, C[C@]12CC[C@H]3[C@@H](CCC4=CC(=O)CC[C@@]43C)[C@@H]1CC[C@@H]2O [Testosterone, testosterone, reference compound] has microsomal CLint of 50.5 µL/min/mg

---

test: in vitro; conditions: male, Beagle, dog, 60 min, 1 μM
Property: Measured concentration of analyte PEA, 60 min (µM)
I only need the number, in µM, no unit after it.

Per the record, CC/C=C\C/C=C\C/C=C\C/C=C\C/C=C\CCCC(=O)OCCNC(=O)CCCCCCCCCCCCCCC has Measured concentration of analyte PEA, 60 min of 0.063

Per the record, CCCCCCCCCCCCCCCC(=O)NCCOC(=O)CCC has Measured concentration of analyte PEA, 60 min of 0.17

Per the record, CCCCC/C=C\C/C=C\CCCCCCCC(=O)OCCNC(=O)CCCCCCCCCCCCCCC has Measured concentration of analyte PEA, 60 min of 0.084

Per the record, CCCCCCCCCCCCCCCC(=O)NCCOC(=O)CCC(=O)OCC(COC(=O)CCC)OC(=O)CCC (stereo not shown) has Measured concentration of analyte PEA, 60 min of 0.097

---

assay: Simulated intestinal fluid (SIF) stability in the presence of various enzymes; format: in vitro ADME; details: SIF + Trypsin, 120 min, 1 μM
Give % Remaining of Initial (n = 1) for every item shown.

Per the record, CCCCCCCCCCCCCCCC(=O)NCCOC(=O)CCC(=O)OCC(COC(=O)CCC)OC(=O)CCC (centres unmarked) has % Remaining of Initial (n = 1) of 23%

Per the record, CC/C=C\C/C=C\C/C=C\C/C=C\C/C=C\CCCC(=O)OCCNC(=O)CCCCCCCCCCCCCCC has % Remaining of Initial (n = 1) of 26%

Per the record, CCCCC/C=C\C/C=C\CCCCCCCC(=O)OCCNC(=O)CCCCCCCCCCCCCCC has % Remaining of Initial (n = 1) of 123%

Per the record, CCCCC/C=C\C/C=C\CCCCCCCC(=O)OCC(COC(=O)CCC(=O)OCCNC(=O)CCCCCCCCCCCCCCC)OC(=O)CCCCCCC/C=C\C/C=C\CCCCC (centres unmarked) has % Remaining of Initial (n = 1) of <1.0%

Per the record, CCCCCCCCCCCCCCCC(=O)NCCOC(=O)CCC has % Remaining of Initial (n = 1) of 46%

Per the record, CCCCCCCCCCCCCCCC(=O)NCCOC(=O)CCC(=O)OCC(O)CO (centres unmarked) has % Remaining of Initial (n = 1) of 12%

Per the record, CCCCCCCCCCCCCCCC(=O)NCCOC(=O)CCC(=O)OC[C@H]1O[C@@](CO)(O[C@H]2O[C@H](CO)[C@@H](O)[C@H](O)[C@H]2O)[C@@H](O)[C@@H]1O has % Remaining of Initial (n = 1) of 33%

Per the record, CCCCCCCCCCCCCCCC(=O)NCCOC(=O)CCC(=O)OCC(COC(=O)CCCCCCC)OC(=O)CCCCCCC (centres unmarked) [Compound I-3, PEA-Succinate-Glycerol-Di-Caprylic] has % Remaining of Initial (n = 1) of 43%

---

test: in vitro; conditions: male, CD-1, mouse, 20 min, 1 μM
Property: Concentration (μM) of analyte PEA, 20 min (µM)
I only need the number, in µM, no unit after it.

Per the record, CCCCCCCCCCCCCCCC(=O)NCCOC(=O)CCC(=O)OCC(O)CO (stereo not drawn) has Concentration (μM) of analyte PEA, 20 min of 0.15

Per the record, CCCCCCCCCCCCCCCC(=O)NCCOC(=O)CCC(=O)OC[C@H]1O[C@@](CO)(O[C@H]2O[C@H](CO)[C@@H](O)[C@H](O)[C@H]2O)[C@@H](O)[C@@H]1O has Concentration (μM) of analyte PEA, 20 min of 0.29

Per the record, CCCCCCCCCCCCCCCC(=O)NCCOC(=O)CCC has Concentration (μM) of analyte PEA, 20 min of 0.52

---

test: in vitro; settings: male, Sprague-Dawley, rat, s9, 0.5 h, 1 μM
Give % Remaining of Initial (n = 1), 30 min for every item shown.
I only need the number, in %, no unit after it.

Per the record, CC/C=C\C/C=C\C/C=C\C/C=C\C/C=C\CCCC(=O)OCCNC(=O)CCCCCCCCCCCCCCC has % Remaining of Initial (n = 1), 30 min of 75

Per the record, CCCCCCCCCCCCCCCC(=O)NCCOC(=O)CCC(=O)OC[C@H]1O[C@@](CO)(O[C@H]2O[C@H](CO)[C@@H](O)[C@H](O)[C@H]2O)[C@@H](O)[C@@H]1O has % Remaining of Initial (n = 1), 30 min of 11

Per the record, CCCCCCCCCCCCCCCC(=O)NCCOC(=O)CCC(=O)OCC(COC(=O)CCCCCCC)OC(=O)CCCCCCC (stereo not shown) [Compound I-3, PEA-Succinate-Glycerol-Di-Caprylic] has % Remaining of Initial (n = 1), 30 min of 71

Per the record, CCCCC/C=C\C/C=C\CCCCCCCC(=O)OCCNC(=O)CCCCCCCCCCCCCCC has % Remaining of Initial (n = 1), 30 min of 93

---

Give Concentration (μM) of analyte PEA, 20 min for every item shown.
assay: in vitro; details: both, human, 20 min, 1 μM

Per the record, CCCCCCCCCCCCCCCC(=O)NCCOC(=O)CCC(=O)OCC(COC(=O)CCC)OC(=O)CCC (stereo not shown) [Compound I-11] has Concentration (μM) of analyte PEA, 20 min of 0.20 µM

Per the record, CC/C=C\C/C=C\C/C=C\C/C=C\C/C=C\CCCC(=O)OCCNC(=O)CCCCCCCCCCCCCCC [Compound I-5] has Concentration (μM) of analyte PEA, 20 min of 0.063 µM

Per the record, CCCCCCCCCCCCCCCC(=O)NCCOC(=O)CCC(=O)OCC(COC(=O)CCCCCCC)OC(=O)CCCCCCC (stereo not shown) [Compound I-3, PEA-Succinate-Glycerol-Di-Caprylic] has Concentration (μM) of analyte PEA, 20 min of 0.025 µM

Per the record, CCCCC/C=C\C/C=C\CCCCCCCC(=O)OCCNC(=O)CCCCCCCCCCCCCCC [Compound I-6] has Concentration (μM) of analyte PEA, 20 min of 0.043 µM

Per the record, CCCCCCCCCCCCCCCC(=O)NCCOC(=O)CCC(=O)OC[C@H]1O[C@@](CO)(O[C@H]2O[C@H](CO)[C@@H](O)[C@H](O)[C@H]2O)[C@@H](O)[C@@H]1O [Compound I-7] has Concentration (μM) of analyte PEA, 20 min of 0.62 µM

Per the record, CCCCCCCCCCCCCCCC(=O)NCCOC(=O)CCC(=O)OCC(O)CO (stereo not shown) [Compound I-9] has Concentration (μM) of analyte PEA, 20 min of 0.23 µM

Per the record, CCCCCCCCCCCCCCCC(=O)NCCOC(=O)CCC [Compound I-2] has Concentration (μM) of analyte PEA, 20 min of 0.075 µM
